- tgt: T1, HLA-B*0702 (human)
- T1 construct: also called HLA-B7
- methodNotes: HLA-B7 eluate MS; ALL1; 2 means 1-5 copies/cell
Non-standard residues stand in square brackets, D forms with d. No end group written: not given here. pS = N[C@@H](COP(=O)(O)O)C(=O)O
measuredProperty: binding result

KPR[pS]PVVEL (also called Beta-Adrenergic receptor kinase 1) [GRK2 phosphopeptide KPRsPVVEL]    binds
RPY[pS]PPFFSL [FAM53C phosphopeptide RPYsPPFFSL]    binds
RPP[pS]PGPVL [SCAP phosphopeptide RPPsPGPVL]    binds
